From: PubChem BioAssay (NCI)

tested on: MDA-MB-231 breast; experiment: NCI tumour cell line growth inhibition, 48 h
Can you tell me TGI for the items I'm about to list?

Q: Tell me the measured TGI of CC(=O)OCC1OC(Oc2cc(C)c(O)cc2C/C=C(\C)CC/C=C(\C)C[C@@H](C=C(C)C)OC(C)=O)C(O)C(OC(C)=O)C1OC(C)=O (stereo partly drawn) , please.
Result: > 50 µM

Q: Tell me the measured TGI of Cc1cc2c(cc1Cl)N1C(=O)NS(=O)(=O)N=C1NS2(=O)=O , please.
Result: > 100 µM

Q: Tell me the measured TGI of CCOC(=O)C(NC(=O)c1cccc(Cl)c1)(N1CCN(c2cc3c(cc2F)c(=O)c(C(=O)O)cn3C2CC2)CC1)C(F)(F)F (stereo not drawn) , please.
Result: 34.2 µM

###

system: M14 melanoma; assay: NCI tumour cell line growth inhibition, 48 h
Can you tell me GI50 for the items I'm about to list?

Q: Tell me the measured GI50 of CCOC(=O)c1cc(-c2ccccc2)[nH]c1N/N=C/c1c(Cl)cccc1Cl , please.
Result: 1.71 µM

Q: Tell me the measured GI50 of COc1ccc2c(c1)C(=O)c1c-2c(N2CCN(C(=O)CCNCCNCCO)CC2)nc2ccccc12 , please.
Result: 11.8 µM

Q: Tell me the measured GI50 of O=C1/C(=C/c2ccccc2[N+](=O)[O-])COc2ccc(O)c(O)c21 , please.
Result: 0.797 µM

Q: Tell me the measured GI50 of Cc1cc(N)cc(C)c1-c1c(Br)cc(N)cc1Br , please.
Result: 2.65 µM

Q: Tell me the measured GI50 of CC[C@@]1(O)C(=O)NCc2c1cc1n(c2=O)Cc2cc3c(NC(C)=O)cccc3nc2-1 , please.
Result: > 100 µM

###

system: NCI-H226 lung; assay: NCI tumour cell line growth inhibition, 48 h
assay readout: TGI

Q: Tell me the measured TGI of O=C1C(Br)=CC2(C=C1Br)CCNc1c(O)c3c4c(c12)=NCCC=4C=N3 , please.
Result: 2.74 µM

Q: Tell me the measured TGI of O=C1N=C(Nc2nc(-c3csc(NC4=NC(=O)/C(=C\c5ccc(Cl)cc5)S4)n3)cs2)S/C1=C/c1ccc(Cl)cc1 , please.
Result: 22.3 µM

Q: Tell me the measured TGI of CCOC(=O)CC(=O)CSc1c(-c2ccccc2)c(=O)n(-c2ccccc2)c(=S)n1-c1ccccc1 , please.
Result: > 100 µM

Q: Tell me the measured TGI of CCOC(=O)Nc1cc2c(c(N)n1)N=C(c1ccc3ccccc3c1)CN2 , please.
Result: 3.5 µM

Q: Tell me the measured TGI of O=C1N(CN2CCOCC2)CN(CN2CCOCC2)C(=O)N1Cc1ccc(CN2C(=O)N(CN3CCOCC3)CN(CN3CCOCC3)C2=O)cc1 , please.
Result: > 100 µM

Q: Tell me the measured TGI of CC(C)NC(=O)OCc1c(COC(=O)NC(C)C)c(-c2cc[n+](COC(=O)C(C)C)cc2)n2c1CCC2 , please.
Result: > 100 µM

Q: Tell me the measured TGI of COc1ccc(/C=C2\CCc3cc(OC)c(OC)cc3C2=O)cc1 , please.
Result: > 10 µM

Q: Tell me the measured TGI of CC1(C)OC(=O)C(=Cc2ccc([N+](=O)[O-])s2)C(=O)O1 , please.
Result: 60.5 µM

Q: Tell me the measured TGI of O=C(CSc1ncc(-c2ccccc2)n1-c1ccccc1)Nc1ccc(-c2nc3ccccc3s2)cc1 , please.
Result: > 100 µM

Q: Tell me the measured TGI of N#C/C(C(=O)Nc1ccc(Cl)cc1)=C(/N)N1CCOCC1 , please.
Result: > 100 µM

Q: Tell me the measured TGI of CCSc1nnc(-c2ccccc2)nc1Cc1ccc(OC)cc1 , please.
Result: > 100 µM

Q: Tell me the measured TGI of CCCCc1ccc(Nc2nc(Cl)c3ncn(C4CC(Oc5ccc(C)cc5)C(COc5ccc(C)cc5)O4)c3n2)cc1 (configuration not stated) , please.
Result: > 100 µM

Q: Tell me the measured TGI of Nc1nnc2oc3ccc4ccccc4c3cc1-2 , please.
Result: 80.7 µM

Q: Tell me the measured TGI of O=c1oc2c/c(=C\c3ccccn3)c(=O)c3cccc1c3-2 , please.
Result: > 100 µM

Q: Tell me the measured TGI of C=C(CO)[C@H]1Oc2ccc(C(C)=O)cc2[C@@H]1O , please.
Result: > 100 µM

Q: Tell me the measured TGI of CCCCCCCCCCCC(=O)OC(COC(N)=O)COc1ccc(Cl)cc1 (configuration not stated) , please.
Result: 46.1 µM

Q: Tell me the measured TGI of Cc1cc2c(cc1C)C(=O)/C(=C/c1ccccc1C(=O)O)C2 , please.
Result: 57.8 µM

Q: Tell me the measured TGI of O=C(NNC(=O)c1ccccc1O)c1ccco1 , please.
Result: > 100 µM

Q: Tell me the measured TGI of Clc1ccc(-c2nc3ccc4ccccc4c3c3c2CCCC3)cc1 , please.
Result: > 100 µM

Q: Tell me the measured TGI of O=C(/C=C/c1ccc(O)cc1)c1cc(Cl)ccc1O , please.
Result: > 100 µM

Q: Tell me the measured TGI of c1cc2c(c(NC3=NCCN3)c1)CCCC2 , please.
Result: > 100 µM

Q: Tell me the measured TGI of CSc1nc(Br)nc2ncn(C3CC(Oc4ccc(C)cc4)C(COc4ccc(C)cc4)O3)c12 (configuration not stated) , please.
Result: > 100 µM

###

system: TK-10 renal; test: NCI tumour cell line growth inhibition, 48 h
assay readout: TGI

Q: Tell me the measured TGI of O=C(Nc1ccccc1)Nc1ccc(Cl)c(Cl)c1 , please.
Result: 36.2 µM

Q: Tell me the measured TGI of NC(=O)c1ncn(Cc2ccccc2)c1CNC(N)=S , please.
Result: > 100 µM

Q: Tell me the measured TGI of C[C@H](c1ccccc1)N(CCC(=O)O)C(=O)CCN(C(=O)CCN(C(=O)CCN[C@H](C)c1ccccc1)[C@H](C)c1ccccc1)[C@H](C)c1ccccc1 , please.
Result: > 100 µM

Q: Tell me the measured TGI of NS(=O)(=O)c1nnc(NS(=O)(=O)c2ccc(Cl)cc2)s1 , please.
Result: > 100 µM

Q: Tell me the measured TGI of O=C(c1ccccc1)N1CCC(Nc2nccs2)O1 (configuration not stated) , please.
Result: > 10 µM

Q: Tell me the measured TGI of Cn1cnc([N+](=O)[O-])c1Sc1nc2ccc([N+](=O)[O-])cc2[nH]1 , please.
Result: 59.3 µM

Q: Tell me the measured TGI of Fc1ccc(C2C3CCOc4c(ccc5ccccc45)C3=NN2c2ccccc2)cc1 (configuration not stated) , please.
Result: > 100 µM

Q: Tell me the measured TGI of CC1CC(c2ccc(Cl)c(Cl)c2)=Nc2ccccc2S1 (configuration not stated) , please.
Result: > 100 µM

Q: Tell me the measured TGI of CCOC(=O)C(NC(=O)c1ccccc1)(Nc1ccc(S(=O)(=O)Nc2cc(C)nc(C)n2)cc1)C(F)(F)F (configuration not stated) , please.
Result: > 100 µM

Q: Tell me the measured TGI of COC(=O)C1(O)c2ccccc2N=C2C1CCN2C (configuration not stated) , please.
Result: > 100 µM

Q: Tell me the measured TGI of C=C1C(=O)C2(C)OC2(C)C1C(=O)O (configuration not stated) , please.
Result: > 100 µM

Q: Tell me the measured TGI of N=C1/C(=C2\Nc3ccccc3S2)CC(=O)N1c1ccc(SC(F)F)cc1 , please.
Result: > 100 µM

###

test system: BT-549 breast; assay: NCI tumour cell line growth inhibition, 48 h
Can you tell me TGI for the items I'm about to list?

Q: Tell me the measured TGI of Cc1cccc(/C=N/NC(=S)N(C)CCc2ccccn2)n1 , please.
Result: > 100 µM

Q: Tell me the measured TGI of N=c1oc2ccccc2cc1C(=O)Nc1nccs1 , please.
Result: > 100 µM

Q: Tell me the measured TGI of COC(=O)NC1C(C)OC(OC2C/C=C(/C)C3C=CC4C(OC5CC(OC6CC(OC7CC(O)C(O)C(C)O7)C(OC7CC(O)C(OC)C(C)O7)C(C)O6)C(O)C(C)O5)C(C)CC(C)C4C3(C)/C(O)=C3\C(=O)OC4(CC(C)C(CO)=CC4/C=C\2C)C3=O)CC1(C)[N+](=O)[O-] (stereo not drawn) , please.
Result: 89.5 µM

Q: Tell me the measured TGI of N=C1C(c2nc3ccccc3s2)=C(O)CN1c1cc(Cl)cc(Cl)c1 , please.
Result: > 100 µM

Q: Tell me the measured TGI of NS(=O)(=O)c1nnc(NS(=O)(=O)c2ccc(Cl)cc2)s1 , please.
Result: > 100 µM

Q: Tell me the measured TGI of O=C(/C=C/c1ccccc1)OCC1=C[C@@H](O)[C@@H]2C=CO[C@@H](OC3OC(CO)C(O)C(O)C3O)[C@H]12 (stereo partly drawn) , please.
Result: > 100 µM

Q: Tell me the measured TGI of Cc1[nH]n(-c2ccccc2)c(=O)c1C(N(CCc1ccccc1)C1=NCC(C)S1)(C(F)(F)F)C(F)(F)F (stereo not drawn) , please.
Result: 49.1 µM

Q: Tell me the measured TGI of Oc1cccc(-c2nc(-c3ccccc3)[nH]c2-c2ccncc2)c1 , please.
Result: > 25 µM
